B1: SPSB1 (parent)
chain: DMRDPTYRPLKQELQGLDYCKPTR

variants of: B1; test: protein stability index of a GFP-peptide fusion (GPS, HEK-293T) (PSI 1-6); higher = more stable; details: c terminus: a fixed tail appended;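 further: lentivirally expressed fusions sorted by FACS into six bins by GFP to DsRed ratio, PSI derived from sequencing read proportions per bin multiplied by bin number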

| Construct Sequence | protein stability index |
| --- | --- |
| DMRDPDYRPLKQELQGLDYCKPTR [T6D] | 2.72 |
| DMRDPTLRPLKQELQGLDYCKPTR [Y7L] | 3.25 |
| DMRDPTYRPLKQELQGLDKCKPTR [Y19K] | 3.99 |
| DMRDPTYRPLPQELQGLDYCKPTR [K11P] | 3.3 |
| DMRDPTYRPLKQKLQGLDYCKPTR [E13K] | 2.83 |
| DMRDPTYRPLMQELQGLDYCKPTR [K11M] | 3.71 |
| DMSDPTYRPLKQELQGLDYCKPTR [R3S] | 3.89 |
| DMGDPTYRPLKQELQGLDYCKPTR [R3G] | 3.21 |
| DMRDPTYRPLKQELQGMDYCKPTR [L17M] | 4.12 |
| DMRDPTYRPLKQHLQGLDYCKPTR [E13H] | 3.07 |
| DMRDPTYRPLKQELHGLDYCKPTR [Q15H] | 2.7 |

These entries and their values trace back to the supplement of paper PMC10567573.
